measured.target: panel of 255 wild-type kinases (Homo sapiens, UniProt Q9UK32)
Sequence (Q9UK32 whole entry): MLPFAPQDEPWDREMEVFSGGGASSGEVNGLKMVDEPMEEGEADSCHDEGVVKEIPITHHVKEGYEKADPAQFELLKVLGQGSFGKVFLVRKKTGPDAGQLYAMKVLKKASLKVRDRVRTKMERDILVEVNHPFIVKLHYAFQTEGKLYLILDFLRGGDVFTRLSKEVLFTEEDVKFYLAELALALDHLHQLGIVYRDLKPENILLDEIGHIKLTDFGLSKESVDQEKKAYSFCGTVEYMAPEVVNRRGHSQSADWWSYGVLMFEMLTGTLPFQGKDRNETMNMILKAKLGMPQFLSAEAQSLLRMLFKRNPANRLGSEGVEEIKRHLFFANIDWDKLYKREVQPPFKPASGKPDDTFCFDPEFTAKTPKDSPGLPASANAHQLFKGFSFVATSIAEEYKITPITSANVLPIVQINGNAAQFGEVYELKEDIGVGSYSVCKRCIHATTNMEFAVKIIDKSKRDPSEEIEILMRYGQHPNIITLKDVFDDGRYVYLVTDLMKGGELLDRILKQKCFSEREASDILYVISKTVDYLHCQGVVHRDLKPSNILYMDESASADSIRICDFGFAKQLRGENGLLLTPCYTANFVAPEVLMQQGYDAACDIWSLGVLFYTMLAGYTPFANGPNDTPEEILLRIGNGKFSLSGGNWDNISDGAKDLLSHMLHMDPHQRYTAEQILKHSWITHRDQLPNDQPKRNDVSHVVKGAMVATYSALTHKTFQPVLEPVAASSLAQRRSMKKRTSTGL
assay.method.text: Kinase panel profiling at 1 µmol/L (MSA or IMAP), percentage inhibition
Type: biochemical
condition.description: kinase RSK4; 1 µmol/L single concentration; read-out: %-inhibition at 1 µmol/L, RSK4
measured.metric: inhibition at 1 µM (%)
I only need the number, in %, no unit after it.

The compound COc1ccc(CN2C3CC2CN(c2ccc(-c4cc(OCC(C)(C)O)cn5ncc(C#N)c45)cn2)C3)cn1 [selpercatinib] showed inhibition at 1 µM equal to 43

The compound CCN1CCN(c2ccc(Nc3cc(N(C)C(=O)Nc4c(Cl)c(OC)cc(OC)c4Cl)ncn3)cc2)CC1 [infigratinib] showed inhibition at 1 µM equal to 7

The compound C[C@H](Nc1ncnc2nc[nH]c12)c1cc2cccc(Cl)c2c(=O)n1-c1ccccc1 [duvelisib] showed inhibition at 1 µM equal to -5

The compound COC(=O)N[C@@H](C)CNc1nccc(-c2cn(C(C)C)nc2-c2cc(Cl)cc(NS(C)(=O)=O)c2F)n1 [encorafenib] showed inhibition at 1 µM equal to 4.58

The compound CCc1nc(C(N)=O)c(Nc2ccc(N3CCC(N4CCN(C)CC4)CC3)c(OC)c2)nc1NC1CCOCC1 [gilteritinib] showed inhibition at 1 µM equal to 44

* * *

Can you tell me inhibition at 1 µM for the items I'm about to list?
measured.target: panel of 255 wild-type kinases (Homo sapiens)
assay.method.text: Kinase panel profiling at 1 µmol/L (MSA or IMAP), percentage inhibition
Type: biochemical
condition.description: BTK kinase assay; 1 µmol/L single concentration; read-out: %-inhibition BTK
I only need the number, in %, no unit after it.

The compound FC(F)(F)c1ccc(CNc2ccc(Cc3c[nH]c4ncc(Cl)cc34)cn2)cn1 showed inhibition at 1 µM equal to -0.863

The compound C[C@H]1Oc2cc(cnc2N)-c2c(nn(C)c2C#N)CN(C)C(=O)c2ccc(F)cc21 showed inhibition at 1 µM equal to 1.48

The compound COC(=O)N[C@@H](C)CNc1nccc(-c2cn(C(C)C)nc2-c2cc(Cl)cc(NS(C)(=O)=O)c2F)n1 showed inhibition at 1 µM equal to -1.36

The compound O=C(Nc1cnn2ccc(N3CCC[C@@H]3c3cc(F)ccc3F)nc12)N1CC[C@H](O)C1 showed inhibition at 1 µM equal to -3.71
